ASSAY_TARGET: veratridine-sensitive sodium channel
TEST: binding to the veratridine-sensitive sodium channel
STATED_CONDITIONS: read-out: IC50, affinity for the veratridine binding site
RECORDED_ENDPOINT: IC50 (nM)
// return numeric value only (unit: nM, not printed)

Could you tell me which IC50 is on file for COc1ccc(-c2ccc(C(F)(F)F)cc2)c2c1C[C@H](N(C)C)CC2 ?
125

###

Tested on: veratridine-induced glutamate release in rat hippocampal slice preparations
TEST: veratridine-induced glutamate release in rat hippocampal slice preparations
Type: cell-based
STATED_CONDITIONS: Rattus norvegicus; read-out: IC50, block of veratridine-induced glutamate release
RECORDED_ENDPOINT: IC50

Observe how each entry below is paired with its result.
COMPOUND	IC50
Nc1nnc(-c2cccc(Cl)c2Cl)c(N)n1 [Lamotrigine, reference compound]	20 µM
Nc1nc2ccc(OC(F)(F)F)cc2s1 [Riluzole, reference compound]	5 µM

The record that follows has no IC50 shown yet.
Could you tell me which IC50 is on file for COc1ccc(-c2ccc(C(F)(F)F)cc2)c2c1C[C@H](N(C)C)CC2 ?
0.5 µM
